Test system: PGC-1α
Experiment: Single point PGC-1α assay (in-cell ELISA in differentiated C2C12 myotubes)
Assay type: cell-based
Conditions: Mus musculus, each compound tested at 0.01 nM, DMSO control as 100 %, read-out: Single point PGC1-Alpha Assay: Activity (%)

| Compound | activity at 10 pM |
| --- | --- |
| COc1cc([C@@H]2Oc3cc(O)cc(O)c3C[C@@H]2O)ccc1O | 124% |
| Cc1cc(O)cc([C@H]2Oc3cc(O)cc(O)c3C[C@H]2O)c1 | 103% |
| Oc1cc(O)c2c(c1)O[C@@H](c1ccc(F)c(O)c1)[C@@H](O)C2 | 104% |
| Cc1cc(O)cc([C@@H]2Oc3cc(O)cc(O)c3C[C@@H]2O)c1 | 114% |
| Cc1cc(O)cc(C2Oc3cc(O)cc(O)c3CC2O)c1 (stereo not drawn) | 109% |
| Oc1cc(F)cc([C@@H]2Oc3cc(O)cc(O)c3C[C@@H]2O)c1 | 117% |
